# Tested on: HCT-15 colon
# run description: NCI-60 one-dose screen, 48 h
# experimental parameters: 10 µM unless noted
About 83,000 compounds went through this panel and 20% of them were active in at least one assay; those are over-represented in the sample as a whole. Calls of active or inactive are those of the source. The calls were made as follows: active = growth percent below 10; inactive = the rest.
Possible outcomes: yes = active, no = inactive

{"molecule": "CCCCCCCCCCCCCCCCCCOc1ccccc1CC(=O)NCC[N+]1(C)CCOCC1", "category label": "no"}
{"molecule": "S=c1ssnc1-c1cccs1", "category label": "no"}
{"molecule": "C=C1C(=O)O[C@H]2[C@H]1CC/C(COC(=O)NCc1ccc(Cn3c(=O)sn(-c4ccc(OC)cc4)c3=O)cc1)=C\\CC[C@@]1(C)O[C@@H]21", "category label": "yes"}
{"molecule": "CN1CCN(Cc2cc(NC(=O)c3cccc(C#Cc4cccc5[nH]nc(N)c45)c3)cc(C(F)(F)F)c2)CC1", "category label": "no"}
{"molecule": "C/C(=C(/c1ccc(Cl)cc1)c1ccc(OCCCN(C)C)cc1)c1ccc(Cl)cc1", "category label": "no"}
{"molecule": "N/C(=N\\c1nc2ccccc2s1)NC(=NC1CCCCC1)NC1CCCCC1", "category label": "yes"}
{"molecule": "CCCCCCCCn1ccc2cc(NC(=O)Cn3cc(CN4CCC(C)CC4)nn3)ccc21", "category label": "yes"}
{"molecule": "O=C(CCC(=O)c1nc2ncccc2[nH]1)NN1C(=O)CSC1c1ccc(Cl)cc1 (stereo unspecified)", "category label": "no"}
{"molecule": "COc1ccc(/C(C)=C(\\c2ccc(OCCN3CCCCCC3)cc2)c2ccc(OC(=O)c3ccccc3)cc2)cc1", "category label": "no"}
{"molecule": "COC(=O)c1c2c(n3ccc(C)cc13)C(=O)c1ccccc1C2=O", "category label": "no"}
{"molecule": "NNC(=S)N/N=C/c1ccccn1", "category label": "no"}
{"molecule": "CCOC(=O)c1c(NC(=O)CSc2n[nH]c3nc4ccccc4n23)sc(CC)c1C", "category label": "no"}
{"molecule": "COc1cccc(C(=O)OCC(O)C(=O)NC23CC4CC(CC(C4)C2)C3)c1 (stereo unspecified)", "category label": "no"}
{"molecule": "CCOC(=O)c1ccc2c(c1)c1c(C)c3ccncc3c(C)c1n2C", "category label": "yes"}
{"molecule": "C=CCn1c(SCC(=O)Nc2ccc(C(=O)/C=C/c3cc(OC)c(OC)c(OC)c3)cc2)nnc1-c1cc(-c2ccc(OC)cc2)nc2ccccc12", "category label": "no"}
{"molecule": "Cc1ccc(O)c(NC(=O)c2ccc(CNc3ccnc(C(F)(F)F)c3)cc2)c1", "category label": "no"}
{"molecule": "c1ccc(CCc2ccccc2-c2cc(-c3ccccc3)on2)cc1", "category label": "no"}
{"molecule": "CCN1C(=O)N(CC)C2C1NN=c1s/c(=C3\\C(=O)N(CCc4ccccc4)c4ccccc43)c(=O)n12 (stereo unspecified)", "category label": "no"}
{"molecule": "COc1ccc2nc(Cl)c(/C=C/C(=O)c3ccc(NC(=O)CSc4nnc(-c5ccc(Cl)c(Cl)c5)n4-c4ccccc4)cc3)cc2c1", "category label": "no"}
{"molecule": "CCCCCSB(SCCCCC)c1ccccc1", "category label": "no"}
{"molecule": "CCCNc1nc2ccccc2c2c(=O)c3cccc(Cl)c3sc12", "category label": "no"}
{"molecule": "N#CC(C#N)N=Nc1ccc(Cl)cc1Cl", "category label": "no"}
{"molecule": "O=C(CBr)CN1C(=O)c2ccccc2C1=O", "category label": "no"}
{"molecule": "CN(C)c1ccc(/C=C2/C=C(c3ccccc3)OC2=O)cc1", "category label": "no"}
{"molecule": "C=CCN=C(N)SCCCCCCSC(N)=NCC=C", "category label": "no"}
{"molecule": "CC1=CCC[C@@H]2C1(C)CC[C@H](C)[C@@]2(C)CC1=CC(=O)C(SC(C)(C)C)=CC1=O (stereo partly specified)", "category label": "no"}
